pIC50: −log10 of the molar value.
endpointName: pIC50

Enquiry: # lookup: D2L (Dopamine 2L) (Homo sapiens) pIC50, key = C=CC(=O)N[C@H]1CCC[C@H]1NC(=O)c1sc2nccc3c2c1NC(=O)N3c1cnc(CC(C)C)cc1C (atropisomer, axis not shown)
Return: < 4.90

---

# assayDetails: Phase 1 first-in-human study, plasma pharmacokinetics
# Type: in vivo
# conditionsUsed: male, human, plasma, po, 100 mg, single 100 mg oral solution, male fed (high-fat breakfast); read-out: tmax, median (min-max)
endpointName: Tmax (h)
Answer in h, number only, no unit symbol.

Enquiry: In one line, give reported Tmax of the entry C=CC(=O)N[C@H]1CCC[C@H]1NC(=O)c1sc2nccc3c2c1NC(=O)N3c1cnc(CC(C)C)cc1C (atropisomer, axis not shown) .
Return: 2.5

---

# assayDetails: Phase 1 first-in-human study, plasma pharmacokinetics
# Type: in vivo
# conditionsUsed: both sexes, human, plasma, po, 200 mg, 200 mg QD oral solution, fed, Day 10; read-out: AUC0-24 h
endpointName: AUC(0-t)

Enquiry: Indicate the recorded AUC(0-t) value for this compound: C=CC(=O)N[C@H]1CCC[C@H]1NC(=O)c1sc2nccc3c2c1NC(=O)N3c1cnc(CC(C)C)cc1C (atropisomer, axis not shown)
Return: 3160 ng·h/mL

---

# assayDetails: Phase 1 first-in-human study, plasma pharmacokinetics
# Format: in vivo
# conditionsUsed: male, human, plasma, po, 12 mg, single 12 mg oral solution, male fasted; read-out: tmax, median (min-max)
endpointName: Tmax
Remember to follow the number with its unit.

Enquiry: Provide one value: measured Tmax of C=CC(=O)N[C@H]1CCC[C@H]1NC(=O)c1sc2nccc3c2c1NC(=O)N3c1cnc(CC(C)C)cc1C (atropisomer, axis not shown)
Return: 1 h

---

# assayDetails: Phase 1 first-in-human study, plasma pharmacokinetics
# Type: in vivo
# conditionsUsed: male, human, plasma, po, 4 mg, single 4 mg oral solution, male fasted; read-out: t1/2, dom (converted)
endpointName: half-life (h)
Only the number, expressed in h, is required.

Enquiry: Return the recorded half-life value; entry: C=CC(=O)N[C@H]1CCC[C@H]1NC(=O)c1sc2nccc3c2c1NC(=O)N3c1cnc(CC(C)C)cc1C (atropisomer, axis not shown)
Return: 1.6

---

# targetUnderTest: DOP (Opioid delta) (Homo sapiens)
# Sequence (P41143 whole entry): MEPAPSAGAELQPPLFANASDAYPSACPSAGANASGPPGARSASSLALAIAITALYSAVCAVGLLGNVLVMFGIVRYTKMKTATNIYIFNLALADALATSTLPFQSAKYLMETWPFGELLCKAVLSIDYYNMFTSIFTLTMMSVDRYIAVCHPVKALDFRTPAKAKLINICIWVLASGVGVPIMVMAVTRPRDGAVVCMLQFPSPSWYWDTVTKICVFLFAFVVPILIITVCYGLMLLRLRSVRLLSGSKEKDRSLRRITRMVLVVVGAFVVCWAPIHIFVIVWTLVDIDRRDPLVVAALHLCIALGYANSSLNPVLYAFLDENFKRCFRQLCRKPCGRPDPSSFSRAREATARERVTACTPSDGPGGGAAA
# assayDetails: Receptor panel, Study 3 (agonist/antagonist)
# conditionsUsed: n = 2; comment 20%
pIC50: −log10 of the molar value.
endpointName: pIC50

Enquiry: Annotate the compound C=CC(=O)N[C@H]1CCC[C@H]1NC(=O)c1sc2nccc3c2c1NC(=O)N3c1cnc(CC(C)C)cc1C (atropisomer, axis not shown) with its measured pIC50.
Return: < 5.00

---

# assayDetails: Phase 1 first-in-human study, plasma pharmacokinetics
# Assay type: in vivo
# conditionsUsed: both sexes, human, plasma, po, 36 mg, 36 mg QD oral solution, fed, Day 10; read-out: t1/2, dom (converted)
endpointName: half-life (h)
Expressed in h, but write only the number.

Enquiry: Check the records and state half-life for C=CC(=O)N[C@H]1CCC[C@H]1NC(=O)c1sc2nccc3c2c1NC(=O)N3c1cnc(CC(C)C)cc1C (atropisomer, axis not shown)
Return: 1.5

---

# assayDetails: Phase 1 first-in-human study, plasma pharmacokinetics
# Format: in vivo
# conditionsUsed: male, human, plasma, po, 200 mg, single 200 mg oral solution, male fasted; read-out: t1/2, λz (converted)
endpointName: half-life

Enquiry: Determine its reported half-life: C=CC(=O)N[C@H]1CCC[C@H]1NC(=O)c1sc2nccc3c2c1NC(=O)N3c1cnc(CC(C)C)cc1C (atropisomer, axis not shown)
Return: 12.9 h

---

# assayDetails: Phase 1 first-in-human study, plasma pharmacokinetics
# Assay type: in vivo
# conditionsUsed: male, human, plasma, po, 12 mg, single 12 mg oral solution, male fasted; read-out: AUC0-24 h
endpointName: AUC(0-t) (ng·h/mL)
Answer in ng·h/mL, number only, no unit symbol.

Enquiry: Look up AUC(0-t) of C=CC(=O)N[C@H]1CCC[C@H]1NC(=O)c1sc2nccc3c2c1NC(=O)N3c1cnc(CC(C)C)cc1C (atropisomer, axis not shown) and report it.
Return: 319

---

# assayDetails: Plasma protein binding, equilibrium dialysis
# Format: in vitro ADME
# conditionsUsed: cynomolgus monkey, 0.25 μM, read-out: % Free in plasma
endpointName: fraction unbound at 0.25 μM

Enquiry: Please report the measured fraction unbound at 0.25 μM for C=CC(=O)N[C@H]1CCC[C@H]1NC(=O)c1sc2nccc3c2c1NC(=O)N3c1cnc(CC(C)C)cc1C (atropisomer, axis not shown) [compound of Formula (III)]
Return: < 0.004

---

# assayDetails: Phase 1 first-in-human study, plasma pharmacokinetics
# Type: in vivo
# conditionsUsed: female, human, plasma, po, 36 mg, single 36 mg oral solution, female fasted
endpointName: Cmax (ng/mL)
Field format: number, assumed ng/mL, no unit text.

Enquiry: Determine from records and report Cmax for C=CC(=O)N[C@H]1CCC[C@H]1NC(=O)c1sc2nccc3c2c1NC(=O)N3c1cnc(CC(C)C)cc1C (atropisomer, axis not shown) [compound of Formula (III)]
Return: 233

---

# assayDetails: Phase 1 first-in-human study, plasma pharmacokinetics
# Format: in vivo
# conditionsUsed: male, human, plasma, po, 200 mg, single 200 mg oral solution, male fasted; read-out: AUClast
endpointName: AUC(0-t)
Quick note: number first, unit second.

Enquiry: For the compound C=CC(=O)N[C@H]1CCC[C@H]1NC(=O)c1sc2nccc3c2c1NC(=O)N3c1cnc(CC(C)C)cc1C (atropisomer, axis not shown) , give its reported AUC(0-t).
Return: 277 ng·h/mL

---

# assayDetails: Phase 1 first-in-human study, plasma pharmacokinetics
# Type: in vivo
# conditionsUsed: both sexes, human, plasma, po, 36 mg, 36 mg QD oral solution, fed, Day 10; read-out: AUC0-24 h
endpointName: AUC(0-t) (ng·h/mL)
The reply should be a number in ng·h/mL, with the unit left off.

Enquiry: # return recorded AUC(0-t) for input C=CC(=O)N[C@H]1CCC[C@H]1NC(=O)c1sc2nccc3c2c1NC(=O)N3c1cnc(CC(C)C)cc1C (atropisomer, axis not shown)
Return: 889

---

# assayDetails: Phase 1 first-in-human study, plasma pharmacokinetics
# Format: in vivo
# conditionsUsed: male, human, plasma, po, 100 mg, single 100 mg oral solution, male fasted; read-out: AUC0-24 h
endpointName: AUC(0-t)

Enquiry: Tell me AUC(0-t) reported for C=CC(=O)N[C@H]1CCC[C@H]1NC(=O)c1sc2nccc3c2c1NC(=O)N3c1cnc(CC(C)C)cc1C (atropisomer, axis not shown)
Return: 2140 ng·h/mL

---

# assayDetails: Metabolic stability in liver microsomes
# Type: in vitro ADME, mouse
# conditionsUsed: mouse, liver microsomes
endpointName: microsomal CLint

Enquiry: Fill in microsomal CLint for record C=CC(=O)N[C@H]1CCC[C@H]1NC(=O)c1sc2nccc3c2c1NC(=O)N3c1cnc(CC(C)C)cc1C (atropisomer, axis not shown)
Return: 142 µL/min/mg

---

# assayDetails: Liver microsomal binding
# Assay type: in vitro ADME
# conditionsUsed: mouse, liver microsomes, 1.0 mg/mL, read-out: % Free in liver microsomes
# Protocol: Additional Data on Preclinical PK Profile—Protein binding of the compound of Formula (III) was studied using an equilibrium dialysis method in plasma from human, cynomolgus monkey, beagle dog, Sprague Dawley rat, CD-1 mouse, and guinea pig at 0.25, 2.5, and 25 μM. […] In human and monkey, the plasma protein binding was concentration dependent. […]
endpointName: fraction unbound at 1 μM
When you answer, write just the number.

Enquiry: Supply reported fraction unbound at 1 μM belonging to this compound: C=CC(=O)N[C@H]1CCC[C@H]1NC(=O)c1sc2nccc3c2c1NC(=O)N3c1cnc(CC(C)C)cc1C (atropisomer, axis not shown)
Return: 0.82

---

# assayDetails: Phase 1 first-in-human study, plasma pharmacokinetics
# Assay type: in vivo
# conditionsUsed: male, human, plasma, po, 100 mg, single 100 mg oral solution, male fasted; read-out: t1/2, λz (converted)
endpointName: half-life (h)
Expressed in h, but write only the number.

Enquiry: For the molecule C=CC(=O)N[C@H]1CCC[C@H]1NC(=O)c1sc2nccc3c2c1NC(=O)N3c1cnc(CC(C)C)cc1C (atropisomer, axis not shown) , give its reported half-life.
Return: 5

---

# assayDetails: Metabolic stability in hepatocytes
# Assay type: in vitro ADME
# conditionsUsed: human, read-out: T1/2, hepatocytes
endpointName: half-life

Enquiry: Name the recorded half-life of the compound listed here: C=CC(=O)N[C@H]1CCC[C@H]1NC(=O)c1sc2nccc3c2c1NC(=O)N3c1cnc(CC(C)C)cc1C (atropisomer, axis not shown)
Return: 4.64 h

---

# assayDetails: Metabolic stability in liver microsomes
# Type: in vitro ADME, monkey
# conditionsUsed: monkey, liver microsomes; read-out: T1/2, liver microsomes
endpointName: half-life (min)
Write the answer as a number in min, unit excluded.

Enquiry: Consider the molecule C=CC(=O)N[C@H]1CCC[C@H]1NC(=O)c1sc2nccc3c2c1NC(=O)N3c1cnc(CC(C)C)cc1C (atropisomer, axis not shown) . State its measured half-life.
Return: 11.4
